# tested system: T1, interleukin-23 receptor (IL-23R), Q5VWK5
# T1 chain: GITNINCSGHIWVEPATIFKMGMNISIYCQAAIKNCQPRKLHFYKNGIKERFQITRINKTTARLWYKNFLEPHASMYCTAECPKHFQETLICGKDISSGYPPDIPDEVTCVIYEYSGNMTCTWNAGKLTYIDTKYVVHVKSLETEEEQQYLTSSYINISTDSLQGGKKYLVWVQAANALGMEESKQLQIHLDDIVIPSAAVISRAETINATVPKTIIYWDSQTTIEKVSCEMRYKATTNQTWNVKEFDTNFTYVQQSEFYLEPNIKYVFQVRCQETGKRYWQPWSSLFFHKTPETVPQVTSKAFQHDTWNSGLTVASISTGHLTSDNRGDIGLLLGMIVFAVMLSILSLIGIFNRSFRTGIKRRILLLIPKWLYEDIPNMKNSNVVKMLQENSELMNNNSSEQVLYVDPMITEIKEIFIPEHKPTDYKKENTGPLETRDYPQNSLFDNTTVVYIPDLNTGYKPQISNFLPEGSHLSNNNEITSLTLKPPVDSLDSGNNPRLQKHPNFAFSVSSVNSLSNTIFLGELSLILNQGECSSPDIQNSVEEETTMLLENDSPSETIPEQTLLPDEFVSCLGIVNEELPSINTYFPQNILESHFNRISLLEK
# experiment description: cell-based or functional assay
Positions of bridges follow the written chain, without caps; N, C: chain ends. Non-standard residues stand in square brackets, D forms with d. No end group written: not given here. Trp(7-Me) = Cc1cccc2c(C[C@H](N)C(=O)O)c[nH]c12; 3Pal = N[C@@H](Cc1cccnc1)C(=O)O; Lipidated = not defined here; Pen = CC(C)(S)[C@H](N)C(=O)O; lipid = not defined here; Thp = NC1(C(=O)O)CCOCC1; Sar = CNCC(=O)O
Listed here: items and their measured IL23R Reporter Assay IC50.

Solved entries:
- binder: "[Pen]NT[Trp(7-Me)]K(Ac)[Pen][2‑amino‑3‑(4-(2-aminoethoxy)phenyl)propanoic acid][2‑amino‑3‑(6-hydroxynaphthalen-2-yl)propanoic acid][Thp]K(Ac)N[3Pal][Sar]K(lipid) (disulfide 1-6 (inferred); ends not checked; also: K14: lipidated lysine) [SEQ ID NO: 278]"
  reported measurement: "> 100 nM"
- binder: "[Pen]NT[Trp(7-Me)]K(Lipidated)[Pen][2‑amino‑3‑(4-(2-aminoethoxy)phenyl)propanoic acid][2‑amino‑3‑(6-hydroxynaphthalen-2-yl)propanoic acid][Thp]K(Ac)N[3Pal][Sar] (disulfide 1-6 (inferred); ends not checked; also: K5 lipidated lysine, lipid not given here) [SEQ ID NO: 189]"
  reported measurement: "> 100 nM"

# ---- query binder ----
QUERY: # lookup: IL23R Reporter Assay IC50 of [Pen]NT[Trp(7-Me)]K(Ac)[Pen][2‑amino‑3‑(4-(2-aminoethoxy)phenyl)propanoic acid][2‑amino‑3‑(6-hydroxynaphthalen-2-yl)propanoic acid][Thp]KN[3Pal][Sar] (not fully specified (bridges); ends and bridges not checked; also: K10: lipidated lysine, lipid not given here) [SEQ ID NO: 80]
RESULT: < 10 nM
